meta.source: patent US10760110B2

System: K. pneumoniae NVT1001 and ΔramR strains with tet resistance gene plasmids
Experiment: Etest MIC of tetracyclines, AcrAB-TolC overexpression (ΔramR) and/or tet resistance gene (Table 14)
Type: cell-based, Klebsiella pneumoniae
Conditions: Klebsiella pneumoniae, NVT1001, Tet(C) on pACYC177; read-out: MIC
Method: DNA fragments of the resistance genes along with their flanking regions were amplified from clinical plasmids via PCR with specific primer pairs. The resulting PCR fragments were digested and then cloned into the plasmid pACYC177 or pACYC184. The resulting plasmids were then transformed into K. pneumoniae strain NVT1001 via electroporation. […] The MICs of antibiotics were determined using the Etest (Biodisk AB, Sweden) according to the manufacturer's instructions. […]
Assign MIC to each entry below.
Kindly format the answer as number then unit.

Known MIC results, listed for orientation:
compound="CN(C)c1ccc(O)c2c1C[C@H]1C[C@H]3[C@H](N(C)C)C(O)=C(C(N)=O)C(=O)[C@@]3(O)C(O)=C1C2=O [Minocycline]" reported_result="4 µg/mL"
compound="C[C@H]1c2cccc(O)c2C(=O)C2=C(O)[C@]3(O)C(=O)C(C(N)=O)=C(O)[C@@H](N(C)C)[C@@H]3[C@@H](O)[C@@H]21 [Doxycycline, doxycycline]" reported_result="16 µg/mL"
compound="CN(C)c1cc(NC(=O)CNC(C)(C)C)c(O)c2c1C[C@H]1C[C@H]3[C@H](N(C)C)C(O)=C(C(N)=O)C(=O)[C@@]3(O)C(O)=C1C2=O [Tigecycline, tigecycline]" reported_result="1 µg/mL"

Okay, next one:
Ask: Could you please provide reported MIC for CN(C)[C@@H]1C(O)=C(C(N)=O)C(=O)[C@@]2(O)C(O)=C3C(=O)c4c(O)cccc4[C@@](C)(O)[C@H]3C[C@@H]12 [Tetracycline, tetracycline] ? Thanks!
Reply: 16 µg/mL

###

Tested on: K. pneumoniae NVT1001 and its ΔompK35/36 and/or ΔramR mutants
Assay: Etest MIC, OmpK35/36 loss and AcrAB-TolC overexpression (ΔramR) strains (Table 6)
Format: cell-based, Klebsiella pneumoniae
Details: Klebsiella pneumoniae, WT, NVT1001, read-out: MIC
What MIC was measured for each of the following?
Numbers only, in µg/mL.

Here are 5 molecules together with their reported answers.
molecule="CO/N=C(\\C(=O)N[C@@H]1C(=O)N2C(C(=O)[O-])=C(C[N+]3(C)CCCC3)CS[C@H]12)c1csc(N)n1 [Cefepime]" result_units=µg/mL reported_result=0.06
molecule="C[C@@H](O)[C@H]1C(=O)N2C(C(=O)O)=C(S[C@@H]3CN[C@H](C(=O)N(C)C)C3)[C@H](C)[C@H]12 [Meropenem]" result_units=µg/mL reported_result=0.06
molecule="CO/N=C(\\C(=O)N[C@@H]1C(=O)N2C(C(=O)O)=C(COC(C)=O)CS[C@H]12)c1csc(N)n1 [Cefotaxime]" result_units=µg/mL reported_result=0.06
molecule="CCN[C@@H]1C[C@H](N)[C@@H](O[C@H]2OC(CN)=CC[C@H]2N)[C@H](O)[C@H]1O[C@H]1OC[C@](C)(O)[C@H](NC)[C@H]1O [Netilmicin]" result_units=µg/mL reported_result=0.5
molecule="CCn1cc(C(=O)O)c(=O)c2ccc(C)nc21 [Nalidixic acid, nalidixic acid]" result_units=µg/mL reported_result=4

For each of the items listed, what is its MIC?
1. C[C@H]1COc2c(N3CCN(C)CC3)c(F)cc3c(=O)c(C(=O)O)cn1c23 [Levofloxacin, levofloxacin]
2. COc1c(N2C[C@@H]3CCCN[C@@H]3C2)c(F)cc2c(=O)c(C(=O)O)cn(C3CC3)c12 [Moxifloxacin, moxifloxacin]
3. C[C@@H](O)[C@H]1C(=O)N2C(C(=O)O)=C(SCCN=CN)C[C@H]12 [Imipenem]
4. NCC[C@H](O)C(=O)N[C@@H]1C[C@H](N)[C@@H](O[C@H]2O[C@H](CN)[C@@H](O)[C@H](O)[C@H]2O)[C@H](O)[C@H]1O[C@H]1O[C@H](CO)[C@@H](O)[C@H](N)[C@H]1O [Amikacin]

Reply:
1. 0.06
2. 0.125
3. 0.5
4. 2
